Measured values drawn from patent US6541463B1 for this set.

Target: human type 5 17β-hydroxysteroid dehydrogenase (Homo sapiens)
Construct: screen again a human placental λgt11 cDNA to get the full length cDNA clone; expressed in transfected cells; host or cells: human embryonal kidney 293 cells (pCMV / pCMV-neo vector)
Sequence (P42330 whole entry): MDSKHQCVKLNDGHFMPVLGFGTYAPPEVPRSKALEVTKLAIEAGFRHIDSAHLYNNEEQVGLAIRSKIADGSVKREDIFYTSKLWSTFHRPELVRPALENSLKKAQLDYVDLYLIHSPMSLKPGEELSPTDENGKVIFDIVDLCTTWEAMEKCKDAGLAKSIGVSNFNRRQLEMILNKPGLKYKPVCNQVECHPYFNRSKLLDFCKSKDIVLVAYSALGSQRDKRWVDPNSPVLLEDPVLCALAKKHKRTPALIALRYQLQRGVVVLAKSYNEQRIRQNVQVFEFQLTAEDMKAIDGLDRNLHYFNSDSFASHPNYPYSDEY
Assay: Inhibition of human type 5 17β-HSD activity in transfected 293 cells
Format: cell-based
Conditions: Table 4′; read-out: Inhibition Type V 17β-HSD IC50
Each record here notes measured IC50.
Write down the numeric answer in nM and omit the unit.

Please review the entries below; each comes with its answer.
CC1(C)CC[C@@]2(CCC3C4CCc5cc6oncc6cc5C4CC[C@@]32C)OC1=O (stereo partly shown) [EM-1407-CS] ... 12
CC1(C)CC[C@@]2(CCC3C4CCc5cc(C(=O)O)ccc5C4CC[C@@]32C)OC1=O (stereo partly shown) [EM-1401] ... 4
COCCOc1cc2c(cc1C(=O)O)C1CCC3(C)C(CCC34CCC(C)(C)C(=O)O4)C1CC2 (stereo not shown) [EM-1405] ... 23

Now take the following molecule into account.
Inquiry: What does the data say about its IC50? Entry: CCS(=O)(=O)Oc1ccc2c(c1)CCC1C2CCC2(C)C1CCC21CCC(C)(C)C(=O)O1 (stereo not shown) [EM-1364-CS]
Reply text: 17

###

Test: In vivo assay of oral bioavailability (plasma AUC 0-7 h by LCMS/MS)
Design: species or system male Sprague Dawley rats
Conditions: male, Sprague-Dawley [Crl:CD(SD)Br], 0.5 mg; Table 4′; oral, rat plasma
Entries and their measured log10(AUC(0-t)) follow.
Hi team, quick reminder: these entries are log10 of AUC(0-t) (ng·h/mL).

Known results for compounds:
COCCOc1cc2c(cc1C#N)C1CC[C@@]3(C)C(CC[C@@]34CCC(C)(C)C(=O)O4)C1CC2 (stereo partly shown) [EM-1396] ... 2.29
CC1CCC2(CCC3C4CCc5cc(O)c([N+](=O)[O-])cc5C4CCC32C)OC1=O (stereo not shown) [EM-1131] ... 2.09
CN(C)CCOc1ccc2c(c1)CCC1C2CCC2(C)C1CCC21CCC(C)(C)C(=O)O1 (stereo not shown) [EM-1389-CS] ... 2.23
C[C@]12CCC3c4ccc(O)cc4CCC3C1CC[C@@]21CCCC(=O)O1 (stereo partly shown) [EM-919] ... 0.68
COCCOc1cc2c(cc1C(=O)OC)C1CC[C@@]3(C)C(CC[C@@]34CCC(C)(C)C(=O)O4)C1CC2 (stereo partly shown) [EM-1402-CS] ... 2.33
COc1ccc2c(c1)C(=O)CC1C3CCC4(CCC(C)(C)C(=O)O4)C3(C)CCC21O (stereo not shown) [EM-1386] ... 3.75

Next compound, please.
Inquiry: // query log10(AUC(0-t)) value for entry COCCOc1cc2c(cc1C(N)=O)C1CC[C@@]3(C)C(CC[C@@]34CCC(C)(C)C(=O)O4)C1CC2 (stereo partly shown) [EM-1424]
Reply text: 2.57

###

Biological target: glucocorticoid receptor (Rattus norvegicus)
Construct: from tissue; host or cells: liver cytosol of male Sprague-Dawley rats
Sequence (P06536 whole entry): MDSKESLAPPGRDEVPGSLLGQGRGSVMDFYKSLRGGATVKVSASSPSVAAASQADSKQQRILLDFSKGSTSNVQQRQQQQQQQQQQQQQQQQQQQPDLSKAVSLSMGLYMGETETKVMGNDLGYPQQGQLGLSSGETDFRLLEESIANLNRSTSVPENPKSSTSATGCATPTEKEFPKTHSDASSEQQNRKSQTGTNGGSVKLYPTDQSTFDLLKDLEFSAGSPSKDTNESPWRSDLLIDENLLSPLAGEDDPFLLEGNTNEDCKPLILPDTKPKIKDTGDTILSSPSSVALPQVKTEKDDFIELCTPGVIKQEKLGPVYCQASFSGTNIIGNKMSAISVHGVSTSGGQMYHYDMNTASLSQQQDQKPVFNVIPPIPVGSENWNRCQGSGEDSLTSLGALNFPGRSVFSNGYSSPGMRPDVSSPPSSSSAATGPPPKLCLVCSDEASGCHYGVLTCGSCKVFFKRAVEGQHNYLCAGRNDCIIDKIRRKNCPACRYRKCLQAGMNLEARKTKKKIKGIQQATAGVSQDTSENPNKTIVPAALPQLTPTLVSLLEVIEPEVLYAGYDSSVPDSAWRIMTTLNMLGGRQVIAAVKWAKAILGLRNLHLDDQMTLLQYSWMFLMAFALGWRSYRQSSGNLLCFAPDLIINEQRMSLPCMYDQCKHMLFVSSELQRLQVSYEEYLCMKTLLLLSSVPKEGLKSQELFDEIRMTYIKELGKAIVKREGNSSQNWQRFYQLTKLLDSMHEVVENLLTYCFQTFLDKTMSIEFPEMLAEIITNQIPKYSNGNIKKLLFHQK
Assay: Glucocorticoid receptor assay: inhibition of [3H]-dexamethasone binding, liver cytosol
Conditions: Table 4′; E^−6; read-out: % Inhibition Glucocorticold Receptor E^−6
# key: entry, value: inhibition at 1 µM
Your answer is read as %, so omit the unit and give the number.

COCCOc1cc2c(cc1C#N)C1CC[C@@]3(C)C(CC[C@@]34CCC(C)(C)C(=O)O4)C1CC2 (some centres unmarked) ... 1
CC1(C)CCC2(CCC3C4CCc5cc(O)c([N+](=O)[O-])cc5C4CCC32C)OC1=O (centres unmarked) ... 1
CC1(C)CCC2(CCC3C4CCc5cc(OS(C)(=O)=O)ccc5C4CCC32C)OC1=O (centres unmarked) ... 5
COc1ccc2c(c1)C(=O)CC1C2CC[C@@]2(C)C1CC[C@@]21CCC(C)(C)C(=O)O1 (some centres unmarked) ... 2
C[C@]12CCC3c4cc([N+](=O)[O-])c(O)cc4CCC3C1CC[C@@]21CCCC(=O)O1 (some centres unmarked) ... 1
CC1CCC2(CCC3C4CCc5cc(O)c([N+](=O)[O-])cc5C4CCC32C)OC1=O (centres unmarked) ... 0
COc1c(Br)cc2c(c1Br)CCC1C2CCC2(C)C1CCC21CCC(C)(C)C(=O)O1 (centres unmarked) ... 5

Then this molecule:
Inquiry: What does the data say about its inhibition at 1 µM? Entry: COc1cc2c(cc1C)C1CCC3(C)C(CCC34CCC(C)(C)C(=O)O4)C1CC2 (centres unmarked)
Reply text: 2
